System: FADD−/− Jurkat cells
TEST NAME: Necroptosis inhibition assay, TNF-α-induced necroptosis (CellTiter-Glo 2.0)
Format: cell-based, human
COND: compound 1 μM; TNF-α 15 ng/mL
So basically every entry gets a class from its Necroptosis inhibition assay (Rescue %) 1 μM, ranges being lowest (below 50%), middle (50% to below 70%), highest (70% or more)

Nc1ncc(-c2cnn(C3CCN(CCOCCOCCOCCNC(=O)CNc4ccc5nnn(C6CCC(=O)NC6=O)c(=O)c5c4)CC3)c2)nc1C(=O)O[C@@H](C(=O)Nc1ccc(F)cc1)c1ccccc1 (stereo partly shown) : lowest
Nc1ncc(-c2cnn(C3CCN(CCCCCCNC(=O)C4CCN(c5cccc6c5C(=O)N(C5CCC(=O)NC5=O)C6=O)CC4)CC3)c2)nc1C(=O)O[C@@H](C(=O)Nc1ccc(F)cc1)c1ccccc1 (stereo partly shown) : highest
Nc1ncc(-c2cnn(C3CCN(CCC4CCN(C(=O)COc5ccc6nnn(C7CCC(=O)NC7=O)c(=O)c6c5)CC4)CC3)c2)nc1C(=O)OC(C(=O)Nc1ccc(F)cc1)c1ccccc1 (stereo not shown) : highest
Nc1ncc(-c2cn(C3CCN(CC4CCN(C(=O)C5CCN(c6ccc7c(c6)C(=O)N(C6CCC(=O)NC6=O)C7=O)CC5)CC4)CC3)nn2)nc1C(=O)OC(C(=O)Nc1ccc(F)cc1)c1ccccc1 (stereo not shown) : middle
Nc1ncc(-c2cnn(C3CCN(CC4CCN(CC(=O)NC5CCN(c6cccc7c6C(=O)N(C6CCC(=O)NC6=O)C7=O)CC5)CC4)CC3)c2)nc1C(=O)OC(C(=O)Nc1ccc(F)cc1)c1ccccc1 (stereo not shown) : lowest
Nc1ncc(-c2cnn(C3CCN(CCCN4CCN(c5ccc6c(c5)C(=O)N(C5CCC(=O)NC5=O)C6=O)CC4)CC3)c2)nc1C(=O)OC(C(=O)Nc1ccc(F)cc1)c1ccccc1 (stereo not shown) : middle
Nc1ncc(-c2cn(C3CCN(CC4CCN(C(=O)CNc5cccc6c5C(=O)N(C5CCC(=O)NC5=O)C6=O)CC4)CC3)nn2)nc1C(=O)OC(C(=O)Nc1ccc(F)cc1)c1ccccc1 (stereo not shown) : middle
Nc1ncc(-c2cnn(C3CCN(CCOCCOCCOCCNC(=O)C4CCN(c5ccc6c(c5)C(=O)N(C5CCC(=O)NC5=O)C6=O)CC4)CC3)c2)nc1C(=O)O[C@@H](C(=O)Nc1ccc(F)cc1)c1ccccc1 (stereo partly shown) : lowest

We now examine a further molecule.
// bin(item) where item = Nc1ncc(-c2cnn(C3CCN(CC4CCN(C(=O)CNc5ccc6c(c5)C(=O)N(C5CCC(=O)NC5=O)C6=O)CC4)CC3)c2)nc1C(=O)O[C@@H](C(=O)Nc1ccc(F)cc1)c1ccccc1 (stereo partly shown) highest

---

TESTED TARGET: MLKL (Homo sapiens, UniProt Q8NB16)
Sequence (Q8NB16 whole entry): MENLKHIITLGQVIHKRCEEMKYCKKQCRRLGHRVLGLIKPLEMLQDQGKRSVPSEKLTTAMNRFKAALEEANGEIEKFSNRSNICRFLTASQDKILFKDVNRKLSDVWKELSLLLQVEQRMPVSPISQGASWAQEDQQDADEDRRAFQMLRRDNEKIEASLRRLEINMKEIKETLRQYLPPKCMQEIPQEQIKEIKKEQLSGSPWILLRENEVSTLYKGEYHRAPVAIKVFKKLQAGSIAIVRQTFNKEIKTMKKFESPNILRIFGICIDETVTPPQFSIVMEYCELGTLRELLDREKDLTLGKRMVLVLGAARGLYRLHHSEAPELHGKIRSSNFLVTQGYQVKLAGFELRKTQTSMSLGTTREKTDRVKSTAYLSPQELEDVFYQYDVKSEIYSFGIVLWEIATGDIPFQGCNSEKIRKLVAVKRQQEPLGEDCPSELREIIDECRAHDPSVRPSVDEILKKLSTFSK
TEST NAME: MLKL degradation assay in HepG2 cell line (western blot)
Type: cell-based
Design: endogenous in cells; host or cells: HepG2 or HaCaT
COND: compound 10 μM; cell line not given
RECORDED ENDPOINT: Degradation assay (Degradation %) 10 μM
Respond with the bare value in %.

Known results for molecules:
Nc1ncc(-c2cnn(C3CCN(CC4CCN(CC5CCN(C(=O)C6CCN(C7=CC(=O)N(C8CCC(=O)NC8=O)C7=O)CC6)CC5)CC4)CC3)c2)nc1C(=O)O[C@@H](C(=O)Nc1ccc(F)cc1)c1ccccc1 (stereo partly drawn) : 42.46
Nc1ncc(-c2cnn(C3CCN(CC4CCN(C(=O)C5CCN(c6cccc7c6C(=O)N(C6CCC(=O)NC6=O)C7=O)CC5)CC4)CC3)c2)nc1C(=O)O[C@@H](C(=O)Nc1ccc(F)cc1)c1ccccc1 (stereo partly drawn) : 60.65
Nc1ncc(-c2cnn(C3CCN(CCOC4CCN(c5ccc6c(c5)C(=O)N(C5CCC(=O)NC5=O)C6=O)CC4)CC3)c2)nc1C(=O)OC(C(=O)Nc1ccc(F)cc1)c1ccccc1 (stereo not drawn) : 25.97
Nc1ncc(-c2cnn(C3CCN(CCOCCNC(=O)CNc4cccc5c4C(=O)N(C4CCC(=O)NC4=O)C5=O)CC3)c2)nc1C(=O)O[C@@H](C(=O)Nc1ccc(F)cc1)c1ccccc1 (stereo partly drawn) : 68.41
Nc1ncc(-c2cnn(C3CCN(CCC4CCN(c5cc6c(cc5F)C(=O)N(C5CCC(=O)NC5=O)C6=O)CC4)CC3)c2)nc1C(=O)O[C@@H](C(=O)Nc1ccc(F)cc1)c1ccccc1 (stereo partly drawn) : 94.32
Nc1ncc(-c2cnn(C3CCN(CCOCCNC(=O)C4CCN(c5ccc6c(c5)C(=O)N(C5CCC(=O)NC5=O)C6=O)CC4)CC3)c2)nc1C(=O)O[C@@H](C(=O)Nc1ccc(F)cc1)c1ccccc1 (stereo partly drawn) : 57.68
Nc1ncc(-c2cnn(C3CCN(CC4CCN(c5cccc6c5C(=O)N(C5CCC(=O)NC5=O)C6=O)CC4)CC3)c2)nc1C(=O)O[C@@H](C(=O)Nc1ccc(F)cc1)c1ccccc1 (stereo partly drawn) : 77.36
Nc1ncc(-c2cnn(C3CCN(CC4CCN(CC(=O)NC5CCN(c6ccc7c(c6)C(=O)N(C6CCC(=O)NC6=O)C7=O)CC5)CC4)CC3)c2)nc1C(=O)OC(C(=O)Nc1ccc(F)cc1)c1ccccc1 (stereo not drawn) : 44.2

Continue with the molecule presented below.
So what's the measured Degradation assay (Degradation %) 10 μM for this one? Nc1ncc(-c2cnn(C3CCN(CC4CCN(CCC5CCN(c6cc7c(cc6F)C(=O)N(C6CCC(=O)NC6=O)C7=O)CC5)CC4)CC3)c2)nc1C(=O)O[C@@H](C(=O)Nc1ccc(F)cc1)c1ccccc1 (stereo partly drawn) 75.71

Data provenance: patent US20240252488A1
